# TARGET_UNDER_TEST: SARS-CoV-2 Mpro (3CLpro) (Severe acute respiratory syndrome coronavirus 2)
# PROCEDURE_TEXT: SARS-CoV-2 recombinant protease enzymatic assay (FRET)
# STUDY_CONDITIONS: recombinant Mpro, FRET peptide substrate
Give measured IC50 for each item. Keep answers brief.
Field: numeric (nM). Do not append units.

[in] For the compound O=c1[nH]cccc1-c1cn(-c2cc(Cl)cc(OCc3ncsc3C(F)(F)F)c2)c(=O)n(-c2cccnc2)c1=O , what IC50 is on record?
[out] 12

[in] How about O=c1[nH]cccc1-c1cn(-c2cc(Cl)cc(OCCC(F)(F)F)c2)c(=O)n(-c2cccnc2)c1=O ?
[out] 55

[in] Same for Cc1scnc1COc1cc(Cl)cc(-n2cc(-c3ccc[nH]c3=O)c(=O)n(-c3cccnc3)c2=O)c1
[out] 17

[in] What do we get for O=c1[nH]cccc1-c1cn(-c2cc(Cl)cc(OCc3scnc3C(F)(F)F)c2)c(=O)n(-c2cccnc2)c1=O ?
[out] 43

[in] Next: Cn1c([N+](=O)[O-])cnc1COc1cc(Cl)cc(-n2cc(-c3ccc[nH]c3=O)c(=O)n(-c3cccnc3)c2=O)c1
[out] 12

Data provenance: paper PMC10577883
